Reported pEC50 by item:
# System: α1β1γ1 GABAA receptors (Rattus norvegicus, UniProt P15431+P62813)
# Sequence (P62813 28-455): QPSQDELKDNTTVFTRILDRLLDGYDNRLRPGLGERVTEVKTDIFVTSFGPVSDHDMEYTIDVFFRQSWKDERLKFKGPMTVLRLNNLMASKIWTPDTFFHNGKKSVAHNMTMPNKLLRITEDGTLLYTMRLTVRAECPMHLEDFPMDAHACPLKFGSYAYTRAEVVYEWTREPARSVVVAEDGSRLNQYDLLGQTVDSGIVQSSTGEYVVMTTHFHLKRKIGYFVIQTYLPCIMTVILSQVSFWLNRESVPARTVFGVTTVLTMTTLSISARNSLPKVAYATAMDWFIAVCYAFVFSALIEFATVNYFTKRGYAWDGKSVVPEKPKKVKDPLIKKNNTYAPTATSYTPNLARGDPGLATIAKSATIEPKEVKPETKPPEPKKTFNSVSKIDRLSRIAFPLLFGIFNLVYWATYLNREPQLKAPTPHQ
# Sequence (P15431 26-474): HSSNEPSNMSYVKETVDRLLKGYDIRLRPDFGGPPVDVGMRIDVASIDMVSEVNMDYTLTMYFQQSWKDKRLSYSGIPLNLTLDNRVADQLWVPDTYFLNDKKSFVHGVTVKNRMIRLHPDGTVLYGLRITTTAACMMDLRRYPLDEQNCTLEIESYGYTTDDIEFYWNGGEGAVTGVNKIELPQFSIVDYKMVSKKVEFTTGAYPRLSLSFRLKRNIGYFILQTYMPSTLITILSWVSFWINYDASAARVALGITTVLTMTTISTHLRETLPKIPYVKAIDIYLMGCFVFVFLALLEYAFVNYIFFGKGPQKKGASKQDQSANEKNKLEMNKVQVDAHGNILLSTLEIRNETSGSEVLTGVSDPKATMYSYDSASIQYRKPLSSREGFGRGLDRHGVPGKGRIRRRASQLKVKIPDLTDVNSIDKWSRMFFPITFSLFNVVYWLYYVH
# Sequence (P23574 36-465 partner limits assumed): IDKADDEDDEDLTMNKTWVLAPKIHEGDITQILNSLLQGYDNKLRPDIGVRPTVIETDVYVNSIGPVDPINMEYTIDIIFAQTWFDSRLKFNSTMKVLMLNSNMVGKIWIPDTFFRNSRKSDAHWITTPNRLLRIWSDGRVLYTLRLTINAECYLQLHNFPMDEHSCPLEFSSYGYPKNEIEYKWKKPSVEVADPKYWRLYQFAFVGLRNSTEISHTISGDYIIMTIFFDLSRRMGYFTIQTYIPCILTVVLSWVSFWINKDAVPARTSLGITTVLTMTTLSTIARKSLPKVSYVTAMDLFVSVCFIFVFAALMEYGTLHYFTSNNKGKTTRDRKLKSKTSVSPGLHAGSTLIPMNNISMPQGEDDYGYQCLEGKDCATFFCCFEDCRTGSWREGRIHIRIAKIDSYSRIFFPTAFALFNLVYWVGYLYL
# Method Summary: Two electrode voltage clamp in Xenopus laevis oocytes, α1β1γ1
# From the text: cDNA’s of rat GABAA receptor subunits α1, α4, β1, β2, β3 and γ2S were cloned as described. cDNAs of the rat subunits α2, α3 and α5 were gifts from P. Malherbe, that of α6 and γ1 were gifts of P. Seeburg and that of δ was a gift of C. Czajkowski. The mutants were constructed using the Q5 Site-Directed Mutagenesis Kit (New England Biolabs) following manufacturer’s instruction. […]
Notebook: values listed as pEC50 are -log10 of the concentration (mol/L).

* COc1ccc(-n2nc3c4cc(Cl)ccc4[nH]cc-3c2=O)cc1 | 7.10

System α1β1γ1 GABAA receptors (Rattus norvegicus, UniProt P15431+P62813). Read-out pEC50. Item COc1ccc(-n2nc3c4cc(Cl)cc(C(C)(C)C)c4[nH]cc-3c2=O)cc1 . Report value.
4.68
